T/C for assorted compounds
# Test system: P388 leukemia ip, CD2F1 mice, survival T/C
# experiment_description: NCI In Vivo Anticancer Drug Screen. Data for tumor model P388 Leukemia (intraperitoneal) in CD2F1 (CDF1) mice
# condition_description: endpoint: median survival time; dose: 50.0 mg/kg/injection; schedule: Q01DX009 (ip); vehicle: distilled water + Tween-80; higher = longer survival
# Experimental: The antitumor activity of compounds was measured in mice bearing transplantable tumors. Survival or tumor size were measured and the results are expressed as the measurement made in the treated group (T) divided by the measurement made in the vehicle treated control group (C). The tumor model used in this assay is P388 Leukemia (intraperitoneal) in CD2F1 (CDF1) mice
Inconclusive results and toxic doses are left out.

{"compound": "O=CNc1cccc(NC=O)c1", "tested_target": "P388 leukemia ip, CD2F1 mice, survival T/C", "T/C": "100 % of control"}
{"compound": "CCOC(=O)c1[nH]c(=O)[nH]c(=O)c1I", "tested_target": "P388 leukemia ip, CD2F1 mice, survival T/C", "T/C": "106 % of control"}
{"compound": "CC(C)NC(=O)c1ccc(C/[N+]([O-])=C/c2ccccc2)cc1", "tested_target": "P388 leukemia ip, CD2F1 mice, survival T/C", "T/C": "95 % of control"}
{"compound": "COC(=O)C(Br)CCCC(Br)C(=O)OC (stereo not given)", "tested_target": "P388 leukemia ip, CD2F1 mice, survival T/C", "T/C": "106 % of control"}
{"compound": "C[As](C)SCC1OC(n2ccc(=O)[nH]c2=O)C2OC(C)(C)OC12 (stereo not given)", "tested_target": "P388 leukemia ip, CD2F1 mice, survival T/C", "T/C": "116 % of control"}

---

# System: P388 leukemia ip, CD2F1 mice, survival T/C
# experiment_description: NCI In Vivo Anticancer Drug Screen. Data for tumor model P388 Leukemia (intraperitoneal) in CD2F1 (CDF1) mice
# condition_description: endpoint: median survival time; dose: 100.0 mg/kg/injection; schedule: Q01DX001 (ip); vehicle: saline with Tween-80; higher = longer survival
Inconclusive results and toxic doses are left out.

{"compound": "CS(=O)(=O)NC(=O)CCC(=O)Nc1ccc(Cl)cc1", "tested_target": "P388 leukemia ip, CD2F1 mice, survival T/C", "T/C": "100 % of control"}
{"compound": "O=C1CN(/N=C/c2ccc(-c3ccc(F)cc3)o2)C(=O)N1", "tested_target": "P388 leukemia ip, CD2F1 mice, survival T/C", "T/C": "100 % of control"}
{"compound": "O=[N+]([O-])c1cccc2c1nnn2OC1CCCC1", "tested_target": "P388 leukemia ip, CD2F1 mice, survival T/C", "T/C": "102 % of control"}
{"compound": "CCCCCCCCC(O)C#CC(N)=O (configuration not stated)", "tested_target": "P388 leukemia ip, CD2F1 mice, survival T/C", "T/C": "99 % of control"}
{"compound": "Nc1cc2ccccc2c(Br)n1", "tested_target": "P388 leukemia ip, CD2F1 mice, survival T/C", "T/C": "100 % of control"}
{"compound": "O=C1OCCCCOC(=O)c2ccccc2SSc2ccccc21", "tested_target": "P388 leukemia ip, CD2F1 mice, survival T/C", "T/C": "90 % of control"}
{"compound": "Cc1c([N+](=O)[O-])c(=O)oc2c(C)c3occc(=O)c3cc12", "tested_target": "P388 leukemia ip, CD2F1 mice, survival T/C", "T/C": "89 % of control"}
{"compound": "COc1ccc2c(C)c[nH]c2c1", "tested_target": "P388 leukemia ip, CD2F1 mice, survival T/C", "T/C": "100 % of control"}
{"compound": "C=CCSc1nc(N)nc(Nc2ccccc2)n1", "tested_target": "P388 leukemia ip, CD2F1 mice, survival T/C", "T/C": "98 % of control"}
{"compound": "O=C(c1ccccc1)c1nonc1C(=O)c1ccccc1", "tested_target": "P388 leukemia ip, CD2F1 mice, survival T/C", "T/C": "95 % of control"}
{"compound": "CCO/C=N\\c1c(NC(N)=O)cnn1Cc1ccccc1", "tested_target": "P388 leukemia ip, CD2F1 mice, survival T/C", "T/C": "96 % of control"}
{"compound": "C=CC(C)C(O)C(=O)OC (configuration not stated)", "tested_target": "P388 leukemia ip, CD2F1 mice, survival T/C", "T/C": "98 % of control"}
